Where do these numbers come from? They come from ChEMBL document CHEMBL4257522.

Tested on: Macrophage cell line
measurement-description: Cytotoxicity against human PBMC-differentiated macrophages treated for 24 hrs followed by compound washout and measured after 48 hrs by MTT assay
Format: cell-based
Kindly apply the following: TRUE if IC50 is less than 90 µM, FALSE in every other case.

Previously resolved entries follow.
Threshold test, IC50 < 90 µM: `O=C(O)c1cc(-c2ccccc2)nc(-c2ccccc2)c1O`
TRUE

Threshold test, IC50 < 90 µM: `O=C(O)c1cnc2c(F)cc(F)cc2c1O`
FALSE

Threshold test, IC50 < 90 µM: `O=C(O)c1cc(-c2ccc(F)cc2F)ncc1O`
FALSE

Threshold test, IC50 < 90 µM: `O=C(O)c1cc(-c2ccc(F)cc2F)ccc1O`
TRUE

Threshold test, IC50 < 90 µM: `O=C(O)c1ccnc(-c2ccccc2)c1O`
FALSE

Threshold test, IC50 < 90 µM: `O=C(O)c1cnc(-c2ccccc2)c(O)c1`
FALSE

New cases:
Threshold test, IC50 < 90 µM: `Cc1cc(C(=O)O)c(O)c(Cc2ccccc2)n1`
FALSE

---

Tested on: Streptococcus pyogenes
measurement-description: Potentiation of geneticin-induced antibacterial activity against Streptococcus pyogenes ATCC 14289 assessed as minimum modulatory concentration up to 32 uM measured after 16 hrs in presence of MIC/4 geneticin
Format: functional
assay-context: ATCC 14289, 16 h, read-out: MEC
Entries and their measured minimal effective concentration follow.
API: value field is a number in µM; no unit string.

Could you share which minimal effective concentration value was measured for `O=C(O)c1cc(-c2ccc(F)cc2F)ncc1O` ?
8

Could you share which minimal effective concentration value was measured for `O=C(O)c1cnc(-c2ccccc2)c(O)c1` ?
8

Could you share which minimal effective concentration value was measured for `O=C(O)c1cc(O)cnc1-c1ccccc1` ?
2

Could you share which minimal effective concentration value was measured for `O=C(O)c1cc(-c2ccccc2)nc(-c2ccccc2)c1O` ?
4

Could you share which minimal effective concentration value was measured for `O=C(O)c1ccnc(-c2ccccc2)c1O` ?
2

Could you share which minimal effective concentration value was measured for `O=C(O)c1cc(-c2ccccc2)ncc1O` ?
16

---

Test system: Enterococcus faecium
measurement-description: Potentiation of methicillin-induced antibacterial activity against Enterococcus faecium ATCC 700221 assessed as minimum modulatory concentration up to 32 uM measured after 16 hrs in presence of MIC/4 methicillin
Type: functional
assay-context: ATCC 700221, 16 h, read-out: MEC
If the reported minimal effective concentration equals or exceeds 1 µM, assign condition met. If not, assign condition not met.

Previously resolved entries follow.
Form field: minimal effective concentration at least 1 µM? Entry: `Cc1cc(C(=O)O)c(O)c(Cc2ccccc2)n1`
condition met

Form field: minimal effective concentration at least 1 µM? Entry: `O=C(O)c1cc(-c2ccccc2)nc(-c2ccccc2)c1O`
condition met

New cases:
Form field: minimal effective concentration at least 1 µM? Entry: `COc1cccc(-c2cc(C(=O)O)c(O)cn2)c1`
condition met

Form field: minimal effective concentration at least 1 µM? Entry: `O=C(O)c1cc(-c2ccc(F)cc2F)ccc1O`
condition met

Form field: minimal effective concentration at least 1 µM? Entry: `O=C(O)c1cnc(-c2ccccc2)c(O)c1`
condition not met

Form field: minimal effective concentration at least 1 µM? Entry: `O=C(O)c1cnc2c(F)cc(F)cc2c1O`
condition not met

Form field: minimal effective concentration at least 1 µM? Entry: `C[n+]1ccc(C(=O)[O-])c(O)c1Cc1ccccc1`
condition met

Form field: minimal effective concentration at least 1 µM? Entry: `C[n+]1cc(O)c(C(=O)[O-])cc1-c1ccccc1`
condition met

Form field: minimal effective concentration at least 1 µM? Entry: `O=C(O)c1cc(O)cnc1-c1ccccc1`
condition met

Form field: minimal effective concentration at least 1 µM? Entry: `Cc1nc(-c2ccccc2)c(O)cc1C(=O)O`
condition not met

Form field: minimal effective concentration at least 1 µM? Entry: `O=C(O)c1ccnc(Cc2ccccc2)c1O`
condition met

Form field: minimal effective concentration at least 1 µM? Entry: `COc1cccc(-c2cc(C(=O)[O-])c(O)c[n+]2C)c1`
condition met
